Entries and their one-hybrid fitness for binding parS DNA values follow.
B1: Caulobacter ParB omega fusion; a variant is named by its letters at X, in order, B8GW30 (parent)
chain: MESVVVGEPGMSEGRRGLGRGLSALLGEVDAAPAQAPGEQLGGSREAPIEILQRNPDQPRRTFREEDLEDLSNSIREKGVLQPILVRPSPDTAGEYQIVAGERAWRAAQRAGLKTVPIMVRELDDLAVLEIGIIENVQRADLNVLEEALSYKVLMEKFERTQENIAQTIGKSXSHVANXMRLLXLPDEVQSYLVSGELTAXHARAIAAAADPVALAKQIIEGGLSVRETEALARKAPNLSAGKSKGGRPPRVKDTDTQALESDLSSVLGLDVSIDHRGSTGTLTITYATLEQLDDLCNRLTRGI

- Variants of: B1
- experimentDescription: one-hybrid fitness for binding parS DNA (scaled: cognate 1, non-cognate 0); higher = stronger binding
- condition: with parS DNA site
Over roughly 81,000 sequences, “one-hybrid fitness for binding parS DNA” has its median near -0.17; the highest 2% begin near 0.51. Only a selection was taken, and the highest values are over-represented in it overall.

// worked examples, one-hybrid fitness for binding parS DNA included
DDCG = ≤ 0.2
RTKN = 0.441

Bench note: what one-hybrid fitness for binding parS DNA did RQWS show?
0.959

Bench note: what one-hybrid fitness for binding parS DNA did RYWR show?
≤ 0.2
